Target: T1, human CTGF (antigen of the Biacore assays) (human, UniProt P29279 27-349)
T1 construct: also called antigen human CTGF; human CTGF protein
T1 sequence (looked up): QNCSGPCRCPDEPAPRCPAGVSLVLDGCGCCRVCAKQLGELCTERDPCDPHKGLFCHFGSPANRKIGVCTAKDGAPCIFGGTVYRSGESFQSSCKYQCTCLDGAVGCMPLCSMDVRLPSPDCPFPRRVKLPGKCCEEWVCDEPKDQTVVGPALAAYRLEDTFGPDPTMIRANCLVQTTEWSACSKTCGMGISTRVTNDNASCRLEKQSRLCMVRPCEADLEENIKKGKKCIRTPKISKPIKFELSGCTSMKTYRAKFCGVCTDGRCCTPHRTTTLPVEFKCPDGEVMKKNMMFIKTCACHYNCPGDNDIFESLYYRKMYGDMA
Assay: Biacore, antibody captured on Protein A, CTGF in flow, 1:1 fit
Quantity Kind: Kd (pM)

* Hu147-14wk (antibody, human IgG1, kappa, V domains shown) VH: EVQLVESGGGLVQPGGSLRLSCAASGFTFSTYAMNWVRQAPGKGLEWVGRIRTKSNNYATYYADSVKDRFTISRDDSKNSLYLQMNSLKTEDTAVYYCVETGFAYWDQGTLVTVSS VL: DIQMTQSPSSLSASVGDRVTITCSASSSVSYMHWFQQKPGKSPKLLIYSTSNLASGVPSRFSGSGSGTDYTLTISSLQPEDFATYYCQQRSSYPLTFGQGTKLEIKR | 1130
* Hu147-21wk (antibody, human IgG1, kappa, V domains shown) VH: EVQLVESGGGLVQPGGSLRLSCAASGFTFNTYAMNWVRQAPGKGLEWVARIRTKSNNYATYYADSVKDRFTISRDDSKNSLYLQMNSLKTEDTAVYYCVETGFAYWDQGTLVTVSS VL: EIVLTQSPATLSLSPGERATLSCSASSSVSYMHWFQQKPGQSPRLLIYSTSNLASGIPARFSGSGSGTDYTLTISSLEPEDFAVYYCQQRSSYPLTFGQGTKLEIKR | 974
* Hu164-69wl (antibody, human IgG1, lambda, V domains shown) VH: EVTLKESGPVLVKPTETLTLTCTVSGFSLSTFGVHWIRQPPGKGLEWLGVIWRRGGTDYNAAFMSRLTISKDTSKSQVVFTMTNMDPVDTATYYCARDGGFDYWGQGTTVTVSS VL: ESVVTQPPSVSGAPGQRVTISCRSSIGAVTTSNYANWVQQLPGTAFKGLIGGTSNRAPGVPDRFSGSKSGTSASLAITGLQAEDEADYYCALWYSTHYVFGGGTKLTVLG | 322
* Hu147-31wk (antibody, human IgG1, kappa, V domains shown) VH: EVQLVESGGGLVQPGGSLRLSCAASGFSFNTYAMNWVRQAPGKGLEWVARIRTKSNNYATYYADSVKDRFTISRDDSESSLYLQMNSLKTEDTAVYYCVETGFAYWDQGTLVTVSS VL: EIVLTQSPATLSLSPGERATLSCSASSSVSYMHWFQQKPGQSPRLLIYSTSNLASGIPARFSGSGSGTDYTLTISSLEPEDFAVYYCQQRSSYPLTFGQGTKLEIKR | 894
